test system: CDKL5; details: concentration: 1 μM, replicates: in singlicate; n = 1;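 note: KINOMEscan kinase panel screen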

Molecule: CCOc1nccc(-c2c(-c3ccc(F)cc3)ncn2C2CCNCC2)n1
%Inh (%): 7
--
Molecule: O=C(Nc1n[nH]c2nc(-c3ccccc3O)ccc12)C1CC1
%Inh (%): 0
--
Molecule: CCn1c(-c2nonc2N)nc2c(-c3ccccc3)ncc(OCCCN)c21.O=C(O)C(F)(F)F.O=C(O)C(F)(F)F
%Inh (%): 0
--
Molecule: COc1cc(Nc2nccc(N3CCC(NC(=O)Nc4ccc5c(c4)OCO5)C3)n2)cc(OC)c1OC (centres unmarked)
%Inh (%): 0
--
Molecule: COc1cccc(C2=C(Nc3cccc(O)c3)C(=O)NC2=O)c1
%Inh (%): 0

====

test system: BMPR2; conditions: concentration: 1 μM, replicates: in singlicate; n = 1
Readings of %Inh for the listed compounds

Compound: Cc1ccc(Nc2ccnc(Nc3ccc(C)c(F)c3)n2)cc1O.Cl
%Inh: 7%
//
Compound: Cn1cc(-c2cnc(N)c3c(-c4ccc5c(c4)CCN5C(=O)Cc4ccccc4)csc23)cn1
%Inh: 6%
//
Compound: CSc1ccc(NC2=C(c3ccc(Cl)cc3)C(=O)NC2=O)cc1
%Inh: 0%
//
Compound: O=C1NC(=O)C(c2ccccc2Cl)=C1Nc1cccc(Cl)c1
%Inh: 0%
//
Compound: Cc1ccc(O)cc1Nc1ccnc2ccc(C(C)(C)C)cc12
%Inh: 33%
//
Compound: COC(=O)Nc1nc2cc(Oc3ccc(NC(=O)Nc4cccc(SC)c4)cc3)ccc2[nH]1.Cl
%Inh: 4%
//
Compound: CCNC(=O)/C=C/c1n[nH]c2cc(Sc3ccccc3C(=O)NC)ccc12
%Inh: 1%
//
Compound: CN1CCN(Cc2ccc(NC(=O)Nc3ccc(N(C)c4ccnc(Nc5ccc(CS(C)(=O)=O)cc5)n4)cc3)cc2)CC1.Cl
%Inh: 87%
//
Compound: Cl.Cl.NC(CNC(=O)c1cc(Br)c(-c2ccnc3[nH]ccc23)s1)c1ccccc1 (stereo not shown)
%Inh: 58%
//
Compound: COC(=O)Nc1nc2ccc(Oc3ccc(CC(=O)Nc4cc(C(F)(F)F)ccc4F)cc3)cc2[nH]1
%Inh: 1%
//
Compound: CC(C)c1nc(-c2cccc(NS(=O)(=O)c3c(F)cccc3F)c2)c(-c2ccnc(Nc3ccc(N4CCOCC4)nc3)n2)s1.Cl
%Inh: 0%
//
Compound: COc1ccc(C2=C(Nc3cccc(O)c3)C(=O)NC2=O)cc1
%Inh: 24%
//
Compound: Cc1ccc(C)c(NC(=O)Nc2ccc(C)c(-c3ccc(C(=O)Nc4ccncc4)cc3)c2)c1
%Inh: 0%
//
Compound: Fc1cc(Cl)ccc1Nc1ccnc2cc(-c3ccc(CN4CCOCC4)o3)ccc12
%Inh: 0%
//
Compound: Cc1ccc(-c2ccc3occ(-c4ccc(S(C)=O)cc4)c3c2)nn1 (stereo not shown)
%Inh: 0%
//
Compound: N#CC1(c2cccc(C(=O)Nc3cccc(Oc4ccc5nc(NC(=O)C6CC6)sc5n4)c3)c2)CC1
%Inh: 0%
//
Compound: COc1cccc(C2=C(Nc3cccc(O)c3)C(=O)NC2=O)c1
%Inh: 36%
//
Compound: Cl.N#CCc1ccc(Nc2nccc(Nc3ccc(Oc4ccccc4)cc3)n2)cc1
%Inh: 0%
//
Compound: O=C(Nc1n[nH]c2nc(-c3ccccc3)ccc12)C1CC1
%Inh: 10%

====

The following compounds are listed with their measured %Inh values.
system: HASPIN; construct: gene GSG2; settings: concentration: 1 μM, replicates: in singlicate; n = 1

Line notation: N#CC1(c2cccc(C(=O)Nc3cccc(Oc4ccc5nc(NC(=O)C6CC6)sc5n4)c3)c2)CC1
Target of assay: HASPIN
%Inh: 38%
//
Line notation: O=C(Nc1n[nH]c2nc(-c3ccccc3O)ccc12)C1CC1
Target of assay: HASPIN
%Inh: 0%
//
Line notation: CN(C)CCNS(=O)(=O)c1ccc(-c2ccnc3[nH]ccc23)cc1
Target of assay: HASPIN
%Inh: 84%
//
Line notation: O=C(Nc1n[nH]c2cc(-c3cccs3)ccc12)C1CC1
Target of assay: HASPIN
%Inh: 0%
//
Line notation: COc1cc(Nc2ccnc3cc(-c4ccncc4)ccc23)cc(OC)c1OC.Cl
Target of assay: HASPIN
%Inh: 40%

====

system: RIPK5; details: concentration: 1 μM, replicates: in singlicate; n = 1
Parameter %Inh: see the listing below.

Compound: CN(C)c1ncnc2nc[nH]c12 [SKF-31736]
%Inh / %: 10
//
Compound: CS(=O)(=O)c1cccc(CNc2nc(Nc3ccc4c(c3)CCC(=O)N4)ncc2C(F)(F)F)c1
%Inh / %: 0
//
Compound: Cc1cccc(Nc2nc(NCCN)ncc2C(N)=O)c1 [GSK1292139]
%Inh / %: 14
//
Compound: COc1cc(Nc2ccnc3cc(-c4ccncc4)ccc23)cc(OC)c1OC.Cl [GW494610]
%Inh / %: 0
//
Compound: N#CC1(c2cccc(C(=O)Nc3cccc(Oc4ccc5nc(NC(=O)C6CC6)sc5n4)c3)c2)CC1
%Inh / %: 0
//
Compound: COC(=O)Nc1nc2ccc(Oc3ccc(CC(=O)Nc4cc(C(F)(F)F)ccc4F)cc3)cc2[nH]1 [GW680903]
%Inh / %: 0
//
Compound: COc1cccc(-c2nc(-c3ccccc3)[nH]c2-c2ccncc2)c1 [SB-610250]
%Inh / %: 0
//
Compound: c1ccc(Oc2ccc(Nc3ccnc4cc(-c5ccc(CN6CCCCC6)o5)ccc34)cc2)nc1 [GW567143]
%Inh / %: 0
//
Compound: CC(=O)Nc1cn2nc(Oc3cccc(NC(=O)c4cccc(C(F)(F)F)c4)c3)ccc2n1
%Inh / %: 0
//
Compound: NCCC(NC(=O)c1cc(Br)c(-c2ccnc3[nH]ccc23)s1)c1ccccc1.O=C(O)C(F)(F)F.O=C(O)C(F)(F)F (stereo not drawn) [GSK1307810]
%Inh / %: 1
//
Compound: Cc1cccc(Nc2nc(N[C@H]3CCCC[C@H]3N)ncc2C(N)=O)c1.Cl [GSK986310]
%Inh / %: 17
//
Compound: CC(C)NCC(Cc1ccccc1)NC(=O)c1cc(Br)c(-c2ccnc3[nH]ccc23)s1.Cl.Cl (stereo not drawn) [GSK1383281]
%Inh / %: 9
//
Compound: CNc1nccc(-c2ccc3c(N)n[nH]c3c2)n1 [GSK2206003]
%Inh / %: 0
//
Compound: CCn1c(-c2nonc2N)nc2c(-c3ccccc3)ncc(OCCCN)c21.O=C(O)C(F)(F)F.O=C(O)C(F)(F)F [GSK260205]
%Inh / %: 0
//
Compound: COC(=O)Nc1nc2cc(Oc3ccc(NC(=O)Nc4cccc(SC)c4)cc3)ccc2[nH]1.Cl [GW697999]
%Inh / %: 0
//
Compound: CN1CCN(Cc2ccc(NC(=O)Nc3ccc(N(C)c4ccnc(Nc5ccc(CS(C)(=O)=O)cc5)n4)cc3)cc2)CC1.Cl [GW827654]
%Inh / %: 94.9
//
Compound: CN(c1ccc(NC(=O)N2CCN(CCCN3CCOCC3)CC2)cc1)c1ccnc(Nc2ccc(CS(C)(=O)=O)cc2)n1.Cl [GW830899]
%Inh / %: 0
//
Compound: CCNc1nccc(-c2c(-c3ccc(F)cc3)ncn2C2CCN(C)CC2)n1
%Inh / %: 0

====

system: MKK7; settings: concentration: 1 μM, replicates: in singlicate; n = 1

Line notation: COc1cccc(C2=C(Nc3cccc(O)c3)C(=O)NC2=O)c1
%Inh / %: 20
//
Line notation: COc1cccc2c(-c3ccncc3)c(-c3ccc(F)cc3)nn12
%Inh / %: 0
//
Line notation: COc1cccc(-c2nc(-c3ccccc3)[nH]c2-c2ccncc2)c1
%Inh / %: 0
//
Line notation: Cn1cc(-c2cnc(N)c3c(-c4ccc5c(c4)CCN5C(=O)Cc4ccccc4)csc23)cn1
%Inh / %: 0
//
Line notation: Cc1ccccc1CC(=O)N1CCc2cc(-c3cn(C)c4ncnc(N)c34)ccc21
%Inh / %: 0
//
Line notation: Cc1cc(-c2ccnc(Nc3cccc(C#N)c3)n2)cc(C)c1O
%Inh / %: 36
//
Line notation: O=C(Nc1c(F)cccc1F)c1cc(C(=O)c2ccccc2F)c[nH]1
%Inh / %: 0
//
Line notation: COc1ccc(C)c(Nc2ccnc(Nc3ccc(-c4cnc[nH]4)cc3)n2)c1.Cl
%Inh / %: 0
//
Line notation: CN(c1ccc2c(c1)nc(NCc1ccccc1)n2C)c1ccnc(Nc2ccc(CS(C)(=O)=O)cc2)n1.Cl
%Inh / %: 23

====

Measured %Inh of individual entries
system: RIOK2; conditions: concentration: 1 μM, replicates: in singlicate; n = 1
Measurement kind: %Inh (%)

Compound: COc1cccc(NC(=O)NCCNc2ccnc(Nc3ccc(F)cc3)n2)c1
Measurement kind: %Inh
Unit info: %
Measured value: 0
--
Compound: COC(=O)Nc1nc2cc(Oc3ccc(NC(=O)Nc4cccc(SC)c4)cc3)ccc2[nH]1.Cl
Measurement kind: %Inh
Unit info: %
Measured value: 0
--
Compound: COc1cccc(-c2nc(-c3ccccc3)[nH]c2-c2ccncc2)c1
Measurement kind: %Inh
Unit info: %
Measured value: 0
--
Compound: CN(C)c1ncnc2nc[nH]c12
Measurement kind: %Inh
Unit info: %
Measured value: 0
--
Compound: O=C(Nc1n[nH]c2cc(-c3cccs3)ccc12)C1CC1
Measurement kind: %Inh
Unit info: %
Measured value: 18
--
Compound: Cc1ccc(NC(=O)c2ccnc(N3CCCCC3)c2)cc1-c1ccc(C(=O)NCC2CC2)cc1
Measurement kind: %Inh
Unit info: %
Measured value: 0
--
Compound: CN(c1ccc(NC(=O)N2CCN(CCCN3CCOCC3)CC2)cc1)c1ccnc(Nc2ccc(CS(C)(=O)=O)cc2)n1.Cl
Measurement kind: %Inh
Unit info: %
Measured value: 0
--
Compound: Cc1ccc(-c2ccc3occ(-c4ccc(S(C)=O)cc4)c3c2)nn1 (stereo not drawn)
Measurement kind: %Inh
Unit info: %
Measured value: 10
--
Compound: CCOc1nccc(-c2c(-c3ccc(F)cc3)ncn2C2CCNCC2)n1
Measurement kind: %Inh
Unit info: %
Measured value: 24
